Tested on: Fer (mouse)
ASSAY_NOTES: phosphorylation enrichment, bacterial display (enrichment ratio); higher = better substrate or ligand; peptides without Tyr show the background;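 further: 11-residue human phosphosite peptides and single-mutation variants displayed on the E. coli surface, counted by deep sequencing, each peptide's frequency after selection divided by its frequency in the unselected input library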;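 further: frequency after pTyr selection over input frequency; kinase dosed for 20-30% of maximal phosphorylation in three min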
METRIC_NAME: phosphorylation enrichment
Give bare numbers.

FGGRDYSLDEF [MYOF_Y1705_YF]	0.493

Please state phosphorylation enrichment for every sequence in the list that follows.
1. FAELVYTGFWH [ASS1_Y322]
2. SLFQFYFQQKG [CHKB_Y381_R377L]
3. GFILMYDITNK [RAB3C_Y110_E115K]

Result:
6.97
0.612
0.724

----------
STUDY_SYSTEM: FGFR3 (UniProt P22607)
Sequence (P22607 whole entry, looked up): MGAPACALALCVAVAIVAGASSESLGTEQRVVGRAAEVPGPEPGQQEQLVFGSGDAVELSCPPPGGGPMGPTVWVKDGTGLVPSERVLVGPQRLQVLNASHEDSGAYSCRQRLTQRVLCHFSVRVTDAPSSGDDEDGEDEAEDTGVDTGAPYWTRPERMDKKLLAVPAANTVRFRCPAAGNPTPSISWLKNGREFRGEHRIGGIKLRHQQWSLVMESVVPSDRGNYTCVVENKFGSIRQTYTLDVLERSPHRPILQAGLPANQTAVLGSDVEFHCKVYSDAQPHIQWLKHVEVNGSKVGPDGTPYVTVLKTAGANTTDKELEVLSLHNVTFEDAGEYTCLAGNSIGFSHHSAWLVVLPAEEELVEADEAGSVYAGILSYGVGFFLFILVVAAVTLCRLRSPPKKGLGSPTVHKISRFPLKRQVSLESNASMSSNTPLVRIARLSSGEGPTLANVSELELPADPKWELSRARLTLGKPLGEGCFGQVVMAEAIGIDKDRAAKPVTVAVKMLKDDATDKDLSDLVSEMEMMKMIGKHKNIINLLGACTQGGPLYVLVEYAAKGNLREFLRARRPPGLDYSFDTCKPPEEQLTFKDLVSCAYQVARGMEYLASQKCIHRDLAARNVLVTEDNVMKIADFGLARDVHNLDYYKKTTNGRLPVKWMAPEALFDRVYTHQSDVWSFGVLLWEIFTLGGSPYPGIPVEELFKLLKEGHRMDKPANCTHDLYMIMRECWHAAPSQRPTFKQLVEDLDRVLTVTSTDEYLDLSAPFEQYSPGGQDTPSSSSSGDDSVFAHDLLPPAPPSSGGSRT
ASSAY_NOTES: phosphorylation enrichment, bacterial display (enrichment ratio); higher = better substrate or ligand; peptides without Tyr show the background
Kind request: treat 0.7 as inclusive, so phosphorylation enrichment at 0.7 or higher is condition met, anything lower is condition not met.

Request: hey, is phosphorylation enrichment for this one >= 0.7? ENKGVYVPMSG [IVD_Y277_L279P]
Result: condition not met

Request: hey, is phosphorylation enrichment for this one >= 0.7? RLNCIYYKDQT [RS1_Y165_W163C]
Result: condition met

Request: hey, is phosphorylation enrichment for this one >= 0.7? NQDRTYYESVR [SPEN_Y632]
Result: condition met

Request: hey, is phosphorylation enrichment for this one >= 0.7? LFSLGYHQSRW [GANAB_Y396]
Result: condition met

Request: hey, is phosphorylation enrichment for this one >= 0.7? TTKAKYKTPTF [PLD2_Y573_YF]
Result: condition not met

Request: hey, is phosphorylation enrichment for this one >= 0.7? LGPSDYFGEIA [PRKAR1A_Y323]
Result: condition met

Request: hey, is phosphorylation enrichment for this one >= 0.7? EVKEAYMGNVL [ACAT1_Y90]
Result: condition not met

Request: hey, is phosphorylation enrichment for this one >= 0.7? QGIFGYHHFMQ [UFSP2_Y287_YF]
Result: condition met

Request: hey, is phosphorylation enrichment for this one >= 0.7? FQGGTYSKACT [FGG_Y380_S384C_YF]
Result: condition not met

Request: hey, is phosphorylation enrichment for this one >= 0.7? LKMLVYMDMSK [LRRC7_Y234_L235M]
Result: condition met

Request: hey, is phosphorylation enrichment for this one >= 0.7? ELAKYYKLHHI [AK7_Y391_N389K]
Result: condition not met

Request: hey, is phosphorylation enrichment for this one >= 0.7? TLQSMYGCDLG [HLA-B_Y123_V127L]
Result: condition met

Request: hey, is phosphorylation enrichment for this one >= 0.7? SKKVRYVVSKA [BARD1_Y156]
Result: condition not met

Request: hey, is phosphorylation enrichment for this one >= 0.7? HICTAYKLVLA [DHCR24_Y190_E191K]
Result: condition met

Request: hey, is phosphorylation enrichment for this one >= 0.7? KIVQDYLEKFY [MMP8_Y36_T32I]
Result: condition not met

Request: hey, is phosphorylation enrichment for this one >= 0.7? RSRRSYSCQVM [IGLL1_Y192]
Result: condition met

Request: hey, is phosphorylation enrichment for this one >= 0.7? EFKKHYGYSLY [ANXA3_Y295]
Result: condition not met

Request: hey, is phosphorylation enrichment for this one >= 0.7? FDSPFYQDSLP [TSC1_Y508_R509Q]
Result: condition not met

Request: hey, is phosphorylation enrichment for this one >= 0.7? HNLNYYKKTTN [FGFR3_Y648_D646N]
Result: condition not met

Request: hey, is phosphorylation enrichment for this one >= 0.7? LDYNEYFRGLN [HPRT1_Y198_D201G]
Result: condition met

Request: hey, is phosphorylation enrichment for this one >= 0.7? KFANSYRMEPL [TCTE3_Y87]
Result: condition not met

Data origin, for the record: the supplement of paper PMC10065799
